# Test system: HT29 colon
# experimentSummary: NCI-60 one-dose screen, 48 h
# experimentalParameters: 10 µM unless noted
Compounds without any hit were thinned out: in the full panel of roughly 83,000, 20% have a hit. The source made the active and inactive calls. Rule for the calls: active = growth percent below 10; inactive = the rest.
Possible outcomes: 1 for active, -1 for inactive

compound	assignedLabel
C=C1C(=O)O[C@H]2[C@H]1CC/C(COC(=O)NCc1[nH]nc3ccccc13)=C\CC[C@@]1(C)O[C@@H]21	1
COc1ccc2nc(-c3ccc(-c4noc(-c5ccc(Cl)cc5)n4)cc3)[nH]c2c1	-1
Cc1ccccc1NC(=O)c1sc2nc3c(cc2c1N)C(=O)CCC3	-1
COc1ccc2nc(C)cc(Sc3nc4ccccc4s3)c2c1	-1
CCN1CCN(Cc2ccc(NC(=O)Nc3ccc(-n4ccc5c(NC(=O)c6ccccc6)nccc54)cc3)cc2C(F)(F)F)CC1	1
C=C1C(=O)O[C@H]2[C@H]1CC/C(COC(=O)NCc1c[nH]c3ccc(OC)cc13)=C\CC[C@@]1(C)O[C@@H]21	1
COc1ccc(C2NC(=O)c3cc4c(cc3N2)OCO4)cc1 (stereo not given)	1
CCCCCCCCCCCC1=NC(C)(C)CN1CCO	1
Cc1cccc2nc3ccccc3c(Nc3ccc(NS(C)(=O)=O)cc3)c12	-1
O=C1CCCN1C(O)CCN(Cc1ccccc1)Cc1ccc(Cl)cc1 (stereo not given)	-1
N=c1nc(N2CCCCC2)cc(N)n1O	-1
CC(C)CCSc1nc(-c2ccc(F)cc2)c(C#N)c(N2CCN(C)CC2)n1	-1
C=C[C@H]1CCC/C=C/[C@@H]2C[C@H](O)C[C@H]2[C@H](O)/C=C/C(=O)O1	1
CC(C)CCSc1nc(Nc2ccccc2)c(C#N)c(-c2ccc(F)cc2)n1	-1
NC(N)=N/N=C/c1ccc(Cl)cc1	-1
N=C(N)c1ccc(-c2ccc(-c3cccs3)s2)cc1F	1
CCc1onc(-c2ccc(OC)cc2)c1-c1ccccc1OCCN(CC)CC	-1
CC(=O)NC1C(O[C@H]2C[C@H]3[C@@H]4CC=C5C[C@@H](O)CC[C@]5(C)[C@H]4CC[C@]3(C)[C@H]2[C@H](C)C(=O)CCC(C)C)OCC(O)C1O (stereo not given in full)	-1
CCCCCCCCCCCC1=NC(C)(C)CN1C(C)C	1
CC1OC(n2c3ccccc3c3c4c(c5c6ccccc6[nH]c5c32)C(=O)N(CCN[C@H]2CCC[C@@H]2N)C4=O)CC(O)C1O (stereo not given in full)	-1
Oc1ccc(-c2nc3ccccc3s2)cc1CN(Cc1ccccn1)Cc1ccccn1	-1
CC(C)(c1ccccc1)c1cc(O)c(C(C)(C)c2ccccc2)cc1O	-1
COc1ccc(-c2cnc(-c3ccncc3-c3cccc(OC)c3)o2)cc1	1
CCCCOc1nc2ccccc2cc1/C=C/c1cc(/C=C/c2cc3ccccc3nc2OCCCC)n(-c2ccccc2)n1	-1
CC(=O)Nc1c(Br)cc2c(c1Br)Cc1cc(Br)ccc1-2	-1
CN1C(=O)C(C(=O)/C=C/c2ccccc2C(=O)O)C(=O)N(C)C1=O	-1
COc1cccc(N2CCN(c3ncnc4cc[nH]c34)CC2)c1	-1
COc1cc(C)c(Cl)cc1C1=NN(c2ccc(S(N)(=O)=O)cc2)C(/C=C/c2ccccc2)C1 (stereo not given)	-1
CN(C)c1nc(-c2cccs2)n2nc(-c3ccc(Cl)cc3)cc2n1	-1
CCCCCCCC/C=C/CCCCCCCC1=NC(C)(C)CN1c1ccccc1	-1
Cn1c(=O)c2c(nc(N/N=C/c3ccccc3Cl)n2C)n(C)c1=O	-1
CN(C)c1nc(-c2ccco2)n2nc(-c3ccc(Cl)cc3)cc2n1	-1
Nc1nc(NC2CC2)cc(-c2cccc(Cl)c2Cl)n1	-1
C/C(=N\NC(=O)CSc1nc2ccccc2c(=O)n1CCc1ccc(S(N)(=O)=O)cc1)c1ccc(Br)cc1	-1
Clc1cccc(CNc2c3ccccc3nc3ccccc23)c1	1
COc1ccc(C(=O)OC2C(OC3C(O)COC(O[C@H]4C[C@H]5[C@@H]6CC=C7C[C@@H](O)CC[C@]7(C)[C@H]6CC[C@]5(C)[C@H]4[C@H](C)C(=O)CCC(C)C)C3OC(N)=O)OCC(O)C2O)cc1 (stereo not given in full)	1
COc1cc(OC)c(Cl)cc1N	-1
COc1ccc(-c2cc(C(=O)Nc3ccc(C)cc3)nc3[nH]c(=O)sc23)cc1	-1
O=C(Nc1ccc(-n2ccc3c(NC(=O)c4ccccc4)nccc32)cc1)c1ccc(N2CCOCC2)c(C(F)(F)F)c1	1
COc1ccc(-c2ccc(-c3ccc(C(=N)N)s3)s2)cc1	1
